tested on: RXF 393 renal; assay: NCI tumour cell line growth inhibition, 48 h
Listed here: items and their measured TGI.
// note: answer is a bare numeric in µM

Consider the reported TGI for these compounds:
# Compound, Tested Target, TGI, µM
data = [
    ("C[N+]1=C(/C=C\\C=C\\c2ccccc2)C(C)(C)c2ccccc21", "RXF 393 renal", 3.62),
    ("Cc1cc(C)c(-n2c(-c3ccc(Br)cc3)cs/c2=N\\N=C2C=C(C(C)(C)C)C(=O)C(C(C)(C)C)=C2)c(C)c1", "RXF 393 renal", 81.8),
    ("Cc1cnc(C(=O)NNc2nc3sc4c(c3c(=O)n2C)C(C)CCC4)cn1 (centres undefined)", "RXF 393 renal", 3.6),
]

Turning to the following compound.
Need TGI, item O=[N+]([O-])c1cc(-c2nc(-c3ccccc3)c(-c3ccccc3)[nH]2)c(O)c([N+](=O)[O-])c1
44.8

----------
tested on: HCT-15 colon; assay: NCI tumour cell line growth inhibition, 48 h; in the data active means GI50 below about 0.43 µM; inactive means the rest
Response enum: active, inactive

# Compound, Class Label
measured = [
    ("NCCCNCCCCNC(=O)C(O)NC(=O)CCCCCCN=C(N)N (centres undefined)", "inactive"),
    ("COc1cc(C2CC(c3ccc(Nc4ccnc5cc(Cl)ccc45)cc3)=NN2c2ccc(Cl)cc2)cc(OC)c1OC (centres undefined)", "inactive"),
    ("CCCCCCCCCCCCC(O)[C@H]1CC[C@H](C(O)CCCCCC(=O)CCCCC2CC(C(C)=O)C(=O)O2)O1 (some centres undefined)", "inactive"),
    ("Cc1cnc(C(=O)Nc2nc3ccc(S(=O)(=O)Nc4ccc(C5(C(F)(F)F)CC5)cc4)cc3[nH]2)cn1", "active"),
    ("CCOC(=O)c1c2c(n3ccccc13)C(=O)c1ncccc1C2=O", "active"),
]

GET /call?item= Cc1cc(N2CCOCC2)cc2[nH]c(-c3c(NC[C@@H](O)c4cccc(Cl)c4)cc[nH]c3=O)nc12 returns the recorded outcome of this test.
inactive

CCN1CCN(CC(=O)N2c3cccc4cccc(c34)N(C(=O)CN3CCN(CC)CC3)C2c2cn(-c3ccccc3)nc2-c2cccc([N+](=O)[O-])c2)CC1 , same question.
inactive

O=C1C(Cl)=C(NCc2ccco2)C(=O)c2ccccc21 , same question.
inactive

CCNC(=O)O[C@H]1CN[C@H](C#Cc2cc3ncnc(Nc4ccc(OCc5cccc(F)c5)c(Cl)c4)c3s2)C1 , same question.
inactive

----------
test system: KM20L2 colon; assay: NCI tumour cell line growth inhibition, 48 h
Listed here: items and their measured TGI.

# Compound, TGI
data = [
    ("NC(N)=NS(=O)(=O)c1ccc(NCCc2c3ccccc3nc3ccccc23)cc1", "> 100 µM"),
    ("CC(=O)O[C@H]1C(=O)[C@@]2(C)C(C(OC(=O)c3ccccc3)C3[C@@H](O)C(OC(=O)[C@@H](O)[C@H](NC(=O)c4ccccc4)c4ccc(C(F)(F)F)cc4)C(C)=C1C3(C)C)[C@]1(OC(C)=O)CO[C@@H]1C[C@@H]2O (stereo not given in full)", "> 25 µM"),
]

Turning to the following compound.
Need TGI, item COc1ccc(-c2cc3[nH]nc(N)c3c(=O)o2)cc1
> 100 µM

----------
tested on: HT29 colon; test: NCI tumour cell line growth inhibition, 48 h; in the data active means GI50 below about 0.43 µM; inactive means the rest
Response enum: active, inactive

The following compounds have reported results that may help.
# Compound, Tested Target, Class Label
measured = [
    ("Cc1cnc(C(=O)NNc2nc3sc4c(c3c(=O)n2C)C(C)CCC4)cn1 (stereo not given)", "HT29 colon", "inactive"),
    ("C#CCOc1cccc(Nc2ncnc3cc(NC(=O)CCl)ccc23)c1", "HT29 colon", "inactive"),
    ("Cc1ncc(C(=O)Nc2ccc(CN3CCN(C)CC3)c(C(F)(F)F)c2)cc1C#Cc1cnc(N)cc1C#N", "HT29 colon", "active"),
    ("O=C(/C=C/c1ccc(C(F)(F)F)cc1)c1ccc(Nc2nc(NCCO)nc(Nc3ccc(Cl)cc3)n2)cc1", "HT29 colon", "inactive"),
]

Okay, now this compound:
GET /call?item= CN(C)c1ccc(/C=C/c2cc[n+](C)c(/C=C/c3ccc(N(C)C)cc3)c2)cc1 returns the recorded outcome of this test.
active
